- STUDY_SYSTEM: ACE from pig kidney (Sus scrofa, UniProt F1RRW5)
- Construct: 1 mU ACE from pig kidney (EC 3.4.15.1 (Sigma)); purchased Sigma; host or cells: pig kidney (tissue-derived enzyme)
- Sequence (F1RRW5 34-1309): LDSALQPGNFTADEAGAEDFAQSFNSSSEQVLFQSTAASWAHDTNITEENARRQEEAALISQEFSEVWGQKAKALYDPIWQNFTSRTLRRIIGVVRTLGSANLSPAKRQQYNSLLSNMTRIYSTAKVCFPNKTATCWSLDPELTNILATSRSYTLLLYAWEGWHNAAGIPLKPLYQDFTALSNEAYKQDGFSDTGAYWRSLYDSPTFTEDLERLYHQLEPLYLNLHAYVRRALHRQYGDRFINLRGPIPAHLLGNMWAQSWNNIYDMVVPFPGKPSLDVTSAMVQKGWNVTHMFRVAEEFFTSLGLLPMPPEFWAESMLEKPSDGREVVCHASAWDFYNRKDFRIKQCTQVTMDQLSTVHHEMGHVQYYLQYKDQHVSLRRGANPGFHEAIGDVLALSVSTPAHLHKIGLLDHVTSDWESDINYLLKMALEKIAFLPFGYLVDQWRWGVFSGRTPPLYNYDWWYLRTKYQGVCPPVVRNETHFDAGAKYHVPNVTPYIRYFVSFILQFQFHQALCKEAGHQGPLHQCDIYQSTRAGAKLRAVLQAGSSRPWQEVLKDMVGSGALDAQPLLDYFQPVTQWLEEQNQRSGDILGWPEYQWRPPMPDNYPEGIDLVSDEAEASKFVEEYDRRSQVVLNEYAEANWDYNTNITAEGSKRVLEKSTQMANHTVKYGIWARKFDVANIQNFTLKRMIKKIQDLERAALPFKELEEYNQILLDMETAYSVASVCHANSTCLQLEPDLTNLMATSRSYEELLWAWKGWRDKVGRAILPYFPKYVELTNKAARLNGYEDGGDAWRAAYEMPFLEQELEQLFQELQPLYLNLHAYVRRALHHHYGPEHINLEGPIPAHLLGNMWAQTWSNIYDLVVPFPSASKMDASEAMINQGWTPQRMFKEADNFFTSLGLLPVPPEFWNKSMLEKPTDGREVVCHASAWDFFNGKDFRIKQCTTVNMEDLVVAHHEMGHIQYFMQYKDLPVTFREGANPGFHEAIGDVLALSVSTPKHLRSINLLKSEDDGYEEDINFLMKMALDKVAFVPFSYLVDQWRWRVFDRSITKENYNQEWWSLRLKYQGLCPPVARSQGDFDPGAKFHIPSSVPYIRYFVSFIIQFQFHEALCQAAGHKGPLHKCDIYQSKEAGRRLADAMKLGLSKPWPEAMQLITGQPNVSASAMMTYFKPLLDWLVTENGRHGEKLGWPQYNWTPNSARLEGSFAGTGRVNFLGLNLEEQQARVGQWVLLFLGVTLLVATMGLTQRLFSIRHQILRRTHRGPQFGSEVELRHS
- METHOD: biochemical
- Assay type: biochemical
- CONDITION_SUMMARY: inhibitor 200 μM; replicates A-D
Ends that are not written are not given here.
ENDPOINT_LABEL: inhibition at 200 µM (%)
Dear colleague, please return just the value in %, with no unit written.

Summary for this substance, PLPEVPP [Peptide S548, PLPEVPP] : inhibition at 200 µM is 88.5

Summary for this substance, AALSPLPEVPP [Peptide S494] : inhibition at 200 µM is 95.9

Summary for this substance, GAALSPLPEVPP [Peptide S544] : inhibition at 200 µM is 90.6

Summary for this substance, LSPLPEVPP [Peptide S546] : inhibition at 200 µM is 98

Summary for this substance, AGAALSPLPEVPP [Peptide S543] : inhibition at 200 µM is 90.1

Summary for this substance, EAGAALSPLPEVPP [Peptide S542] : inhibition at 200 µM is 83.2
